// data source = patent US20250368745A1

- SYSTEM_TESTED: T1, human IL-18BP (human, UniProt O95998 31-194)
- T1 construct: UniProt printed as 095998; also called hIL-18BP
- T1 sequence: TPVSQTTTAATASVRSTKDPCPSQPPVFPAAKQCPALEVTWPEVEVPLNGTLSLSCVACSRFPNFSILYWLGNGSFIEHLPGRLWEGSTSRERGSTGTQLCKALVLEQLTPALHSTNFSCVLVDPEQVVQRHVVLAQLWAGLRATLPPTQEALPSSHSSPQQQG
- PROCEDURE_DETAILS: BLI, apparent KD
Each entry below carries its reported Kd.
Write it as a number; the unit nM goes unstated.

SA301a HC-G97A (antibody, name in Kabat numbering, V domains shown, IgG1 kappa) VH: QVQLQESGPGLVKPSQTLSLTCTVSGYSITSDYNSHWIRQPPGKGLEWIGYIHYSGSTNYNPSLKSRVTISRDTSKNQFSLKLSSVTAADTAVYYCARNYASIYVNYFDYWGQGTLVTVSS VL: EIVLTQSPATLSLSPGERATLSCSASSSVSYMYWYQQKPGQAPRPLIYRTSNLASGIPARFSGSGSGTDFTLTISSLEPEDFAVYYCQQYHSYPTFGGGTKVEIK: 0.44

Now examine the next entry.
Any idea what its Kd is? The binder is SA301a HC-Y96G (antibody, name in Kabat numbering, V domains shown, IgG1 kappa) VH: QVQLQESGPGLVKPSQTLSLTCTVSGYSITSDYNSHWIRQPPGKGLEWIGYIHYSGSTNYNPSLKSRVTISRDTSKNQFSLKLSSVTAADTAVYYCARNGGSIYVNYFDYWGQGTLVTVSS VL: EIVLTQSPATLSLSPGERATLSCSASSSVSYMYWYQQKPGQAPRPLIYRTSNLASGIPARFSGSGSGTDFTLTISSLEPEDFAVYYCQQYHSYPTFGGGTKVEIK
2.5
